# System: phospho-akt (Thr308) in PC-3 cells
# test_summary: Inhibition of phospho-akt (Thr308) in PC-3 cells, MSD phospho-akt 308 ELISA kit
# Type: cell-based
# experimental_setup: Homo sapiens; inhibition of P308 Akt in PC-3 cells using MSD, 2 hours, no serum; read-out: EC50
EC50: recorded values

molecule | EC50
C[C@H](NC(=O)c1cc(C#N)cnc1NCc1ccc(-c2ccc(C#N)nc2)cc1)c1ccc(F)cc1 [Example 111] | > 10000 nM
C[C@H](NC(=O)c1nc(C#N)cnc1NCc1ccc(-c2c[nH]c3ncnc(N)c23)cc1)c1ccc(F)c(F)c1 [Example 315] | < 1000 nM
C[C@H](NC(=O)c1cc(C#N)cnc1NCc1ccc(-c2cccc3n[nH]c(=O)n23)cc1)c1ccc(F)cc1 [Example 144] | > 10000 nM
C[C@H](NC(=O)c1cc(C#N)cnc1NCc1ccc(-c2ccc(NCCN3CCOCC3)nc2)cc1)c1ccc(F)cc1 [Example 223] | > 10000 nM
Nc1n[nH]c2ncc(-c3ccc(CNc4ncc(C(F)(F)F)cc4C(=O)NC4CCC4)cc3)cc12 [Example 299] | 1000 to 10000 nM
CC(C)(N)COc1nc(-c2ccc(CNc3ncc(C(F)(F)F)cc3C(=O)Nc3ccc(F)cc3)cc2)cnc1N [Example 200] | 1000 to 10000 nM
C[C@H](NC(=O)c1nc(C#N)cnc1NCc1ccc(-c2cnc(N)c(O[C@H]3CCNC3)n2)cc1)c1ccc(F)c(F)c1 [Example 164] | < 1000 nM
C[C@H](NC(=O)c1cc(C#N)cnc1NCc1ccc(-c2c[nH]c3ncnc(N)c23)cc1)c1ccc(F)cc1 [Example 41] | < 1000 nM
C#CCNC(=O)c1cc(C(F)(F)F)cnc1NCc1ccc(-c2cnc3[nH]nc(N)c3c2)cc1 [Example 271] | 1000 to 10000 nM
C[C@@H](NC(=O)c1nc(C#N)cnc1NCc1ccc(-c2cnc3[nH]nc(N)c3c2)cc1)c1ccc(F)c(F)c1 [Example 417] | 1000 to 10000 nM
C[C@H](NC(=O)c1cc(C#N)cnc1NCc1ccc(-c2cnc3[nH]cnc3c2)cc1)c1ccc(F)cc1 [Example 135] | < 1000 nM
C[C@H](NC(=O)c1nc(C#N)cnc1NCc1ccc(-c2cn(CCN(C)C)c3ncnc(N)c23)cc1)c1ccc(F)c(F)c1 [Example 398] | 1000 to 10000 nM
NCCNc1nc(-c2ccc(CNc3ncc(C(F)(F)F)cc3C(=O)Nc3ccc(F)cc3)cc2)cnc1N [Example 194] | < 1000 nM
Nc1ncc(-c2ccc(CNc3ncc(C(F)(F)F)cc3C(=O)Nc3ccc(F)cc3)cc2)nc1N1CCNCC1 [Example 193] | 1000 to 10000 nM
Nc1n[nH]c2ncc(-c3ccc(CNc4ncc(C(F)(F)F)cc4C(=O)NCCC4CC4)cc3)cc12 [Example 269] | 1000 to 10000 nM

====

# Test system: phospho-akt (Thr308) in PC-3 cells
# test_summary: Inhibition of phospho-akt (Thr308) in PC-3 cells, MSD phospho-akt 308 ELISA kit
# Format: cell-based
# experimental_setup: Homo sapiens; inhibition of P308 Akt in PC-3 cells using MSD, 2 hours, no serum; read-out: EC50
pEC50: −log10 of the molar value.
property_name: pEC50

molecule | observed_measurement
C[C@H](NC(=O)c1cc(C#N)cnc1NCc1ccc(-c2cnc(N)c(C(=O)NCCN(C)C)n2)cc1)c1ccc(F)cc1 | > 6.00
Cn1ccc(NC(=O)c2cc(C(F)(F)F)cnc2NCc2ccc(-c3cnc4[nH]nc(N)c4c3)cc2)n1 | 5.00 to 6.00
C[C@H](NC(=O)c1cc(C#N)cnc1NCc1ccc(-c2cnc(N)c(NCCN)n2)cc1)c1ccc(F)cc1 | > 6.00
CC(C)Oc1cc(CNc2ncccc2C(=O)NCc2ccc(F)c(F)c2)cc(-c2c[nH]c3ncc(-c4ccn[nH]4)cc23)c1 | 5.00 to 6.00
C[C@H](NC(=O)c1nc(C#N)cnc1N[C@@H](CO)c1ccc(-c2cnc3[nH]nc(N)c3c2)cc1)c1ccc(F)c(F)c1 | < 5.00
Nc1n[nH]c2ncc(-c3ccc(CNc4ncc(C(F)(F)F)cc4C(=O)Nc4ccc(F)c(F)c4)cc3)cc12 | > 6.00
C[C@H](NC(=O)c1nc(C#N)cnc1NCc1ccc(-c2cnc(N)c(-c3cccc(O)c3)n2)cc1)c1ccc(F)c(F)c1 | 5.00 to 6.00
N#Cc1cnc(NCc2ccc(-c3cnc(N)cn3)cc2)c(C(=O)NCc2ccc(F)cc2)c1 | 5.00 to 6.00
C[C@H](NC(=O)c1cc(C#N)cnc1NCc1ccc(-c2cnc(N)c(C(=O)NCCN3CCOCC3)c2)cc1)c1ccc(F)cc1 | 5.00 to 6.00
C[C@H](NC(=O)c1cc(C(F)(F)F)cnc1NCc1ccc(-c2cnc(N)cn2)cc1)c1ccc(F)c(F)c1 | > 6.00
C[C@H](NC(=O)c1cc(C#N)cnc1NCc1ccc(-c2cnc3[nH]ncc3c2)nc1)c1ccc(F)cc1 | > 6.00
CN(Cc1ccc(F)c(F)c1)C(=O)c1nc(C#N)cnc1NCc1ccc(-c2cnc3[nH]nc(N)c3c2)cc1 | > 6.00
NCCOc1nc(-c2ccc(CNc3ncc(C(F)(F)F)cc3C(=O)Nc3ccc(F)cc3)cc2)cnc1N | > 6.00
C[C@H](NC(=O)c1cc(C#N)cnc1NCC#Cc1ccc2nc(N)ncc2c1)c1ccc(F)cc1 | > 6.00
CCN(CC)CCNC(=O)c1cc(-c2ccc(CNc3ncc(C#N)cc3C(=O)N[C@@H](C)c3ccc(F)cc3)cc2)cnc1N | 5.00 to 6.00
C[C@H](NC(=O)c1cc(C#N)cnc1NCc1ccc(-c2cnc(N)c(C(=O)NCCO)c2)cc1)c1ccc(F)cc1 | > 6.00
Nc1ncnc2c1c(-c1ccc(CNc3ncc(C(F)(F)F)cc3C(=O)Nc3ccc(F)cc3)cc1)cn2CCCO | > 6.00
C[C@H](NC(=O)c1cc(C#N)cnc1NCc1ccc(-c2ccnc(N)n2)cc1)c1ccc(F)cc1 | 5.00 to 6.00
C[C@H](NC(=O)c1cc(C#N)cnc1NCc1ccc(-c2cnc(N)c(N3CCC[C@H](N)C3)n2)cc1)c1ccc(F)cc1 | > 6.00
C[C@H](NC(=O)c1nc(C(F)(F)F)cnc1NCc1ccc(-c2cnc3[nH]nc(N)c3c2)cc1)c1ccc(F)c(F)c1 | > 6.00
C[C@H](NC(=O)c1cc(C#N)cnc1NCc1ccc(-c2cnc(N)c(C(=O)NCCO)n2)cc1)c1ccc(F)cc1 | > 6.00
Nc1n[nH]c2ncc(-c3ccc(CNc4ncc(C(F)(F)F)cc4C(=O)Nc4cccc(F)c4)cc3)cc12 | > 6.00
CC(N)CCc1nc(-c2ccc(CNc3ncc(C#N)cc3C(=O)N[C@@H](C)c3ccc(F)cc3)cc2)cnc1N (stereo partly shown) | > 6.00
N#Cc1cnc(NCc2ccc(-c3cnc4[nH]ncc4c3)cc2)c(C(=O)NCc2ccc(F)c(F)c2)c1 | > 6.00
C[C@H](NC(=O)c1cc(C#N)cnc1Nc1ccc(-c2c[nH]c3ncnc(N)c23)cc1)c1ccc(F)cc1 | 5.00 to 6.00
NC(=O)c1cc(CNc2ncccc2C(=O)NCc2ccc(F)c(F)c2)ccc1-n1ccnc1 | < 5.00
C[C@H](NC(=O)c1cc(C#N)cnc1NCc1cnc(-c2cnc3[nH]ncc3c2)s1)c1ccc(F)cc1 | 5.00 to 6.00
C[C@H](NC(=O)c1cc(C#N)cnc1NCc1ccc(-c2cnc3[nH]c(=O)[nH]c3c2)cc1F)c1ccc(F)cc1 | > 6.00

====

# target_or_test_system: PDK1 (Homo sapiens (Human))
# Sequence (O15530 51-359): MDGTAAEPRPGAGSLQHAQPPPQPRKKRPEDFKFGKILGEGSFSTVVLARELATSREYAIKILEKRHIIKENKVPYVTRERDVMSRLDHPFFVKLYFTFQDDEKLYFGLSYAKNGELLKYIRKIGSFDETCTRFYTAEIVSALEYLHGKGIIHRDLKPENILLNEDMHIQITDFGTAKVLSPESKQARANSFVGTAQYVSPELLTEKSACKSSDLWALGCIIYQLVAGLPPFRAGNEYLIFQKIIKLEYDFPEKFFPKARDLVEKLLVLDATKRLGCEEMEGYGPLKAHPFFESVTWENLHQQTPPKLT
# test_summary: PDK1 kinase assay (coupled PDK1/AKT/FAM-crosstide assay, IMAP fluorescence polarization)
# Type: biochemical
# experimental_setup: inhibition of phospo-PDK1 in vitro
pIC50: −log10 of the molar value. Counter-ions that a name gives are not always drawn.
property_name: pIC50

molecule | observed_measurement
COCCNc1ncnc2ccc(-c3ccc(CNc4ncccc4C(=O)N[C@@H](C)c4ccc(F)c(F)c4)s3)cc12 | > 7.00
N#Cc1ccc(NC(=O)c2cccnc2NCc2ccc(-c3ccc4ncnc(N)c4c3)s2)cc1 [Example 3.33, (TFA salt)] | 6.00 to 7.00
C[C@H](NC(=O)c1cc(C#N)cnc1NC/C=C/c1ccc2c(c1)NC(=O)/C2=C\c1cnc[nH]1)c1ccc(F)cc1 | > 7.00
N#Cc1cnc(NCc2ccc(-c3cnc4[nH]nc(N)c4c3)cc2)c(C(=O)Nc2ccc(F)cc2)n1 | > 7.00
C[C@@H](c1ccc(F)cc1)n1cnc2ccnc(NCc3ccc(-c4cc5c(N)ncnc5cn4)s3)c2c1=O | < 5.30
C[C@H](NC(=O)c1cc(C#N)cnc1NCc1ccc(-c2cnc3[nH]ncc3c2)cc1)c1ccc(F)cc1 | > 7.00
Nc1ncnc2ccc(-c3ccc(CNc4nccnc4C(=O)NCc4ccc(F)cc4)s3)cc12 [Example 3.68, (TFA salt)] | > 7.00
C[C@H](NC(=O)c1cc(F)cnc1NCc1ccc(-c2ccc3ncnc(N)c3c2)s1)c1ccc(F)c(F)c1 | 6.00 to 7.00
C[C@H](NC(=O)c1cccnc1NCc1ccc(-c2ccc3ncnc(N)c3c2)s1)c1cc(F)cc(F)c1 [Example 3.62, (TFA salt)] | > 7.00
C[C@H](NC(=O)c1cccnc1N[C@@H](COc1ccc2[nH]c(=O)[nH]c2c1)c1cccc(Cl)c1)c1ccc(F)c(F)c1 | 6.00 to 7.00
Nc1ncnc2ccc(-c3ccc(CNc4ncc(S(=O)(=O)N5CCOCC5)cc4C(=O)NCc4ccc(F)c(F)c4)s3)cc12 | 6.00 to 7.00
C[C@H](NC(=O)c1nccnc1NCc1ccc(-c2ccc3ncnc(N)c3c2)s1)c1ccc(F)cc1 [Example 3.70, (TFA salt)] | > 7.00
O=C(NCc1ccc(F)c(F)c1)c1cccnc1NCCOc1ccc2[nH]c(=O)[nH]c2c1 | > 7.00
Nc1ncnc2ccc(-c3ccc(CNc4ncccc4C(=O)NCc4cccnc4)s3)cc12 [Example 3.37, (TFA salt)] | 6.00 to 7.00
